Below, each entry is listed alongside its reported LogP.
# assayComment: Log P by HPLC on reversed phase, method [a], acidic range (0.1% formic acid)
# Format: physicochemical
# conditions: LC-UV, 0.1% formic acid in water and acetonitrile

// known answers, use as guide
O=C(Nc1cnn(-c2ccccc2F)c1-c1cccc(F)c1)c1cccnc1C(F)F [Example 146]    2.51^[a]
O=C(Nc1cnn(-c2ccccc2Cl)c1C(F)(F)F)c1cccnc1C(F)(F)F [Example 20]    2.87^[a];
Cc1cnc(C(F)F)c(C(=O)Nc2cnn(-c3ccccc3Cl)c2C(C)C)c1 [Example 209]    2.59^[a]

Here's the next entry for you.
q: Tell me measured LogP for Cc1ncccc1C(=O)Nc1cnn(-c2ccc(Br)cc2)c1C(F)(F)F [Example 249] please.
a: 2.28^[a]

---

# assayComment: Log P by HPLC on reversed phase, method [a], acidic range (0.1% formic acid)
# Assay type: physicochemical
# conditions: LC-UV, 0.1% formic acid in water and acetonitrile
valueKind: LogP

// worked examples, LogP included
O=C(Nc1cnn(-c2ccc(C(F)(F)F)cc2)c1-c1ccc(F)cc1)c1cccnc1C(F)F [Example 184]    3.31^[a]
Cc1cnc(C(F)F)c(C(=O)Nc2cnn(-c3cccc(Cl)c3)c2C)c1 [Example 65]    2.51^[a]
CCc1c(NC(=O)c2cc(C)cnc2C(F)F)cnn1-c1cccc(Cl)c1 [Example 213]    2.71^[a]
CC(C)c1c(NC(=O)c2cccnc2C(F)F)cnn1-c1ccccc1 [Example 120]    2.15^[a]
Cc1nn(-c2cccc(F)c2)c(C)c1NC(=O)c1cccnc1C(F)F [Example 15]    1.99^[a]
Cc1c(NC(=O)c2cccnc2C(F)F)cnn1-c1cccc(Cl)c1 [Example 5]    2.25^[a]

q: State its LogP for this molecule: COc1cnc(C(F)F)c(C(=O)Nc2cnn(-c3cc(Cl)ccc3Cl)c2C(F)(F)F)c1 [Example 177]
a: 3.39^[a]
